RUN_DESCRIPTION: Plasma, vaginal secretion and vaginal tissue exposure after oral administration in mice
Assay type: in vivo
CONDITION_DESCRIPTION: female, CD-1, mouse, vaginal secretion, po, 10 mg/kg, oral gavage, QD 10 mg/kg (Day 1), read-out: AUC0-24 Vaginal Secretion
REPORTED_METRIC: AUC(0-t)
Phrase the answer as number then unit, nothing more needed.

Reported AUC(0-t) ( CC(C)[C@@H](C)[C@@]1(C)CC[C@]2(C)[C@H]3CC[C@@H]4[C@@]5(COC[C@]4(C)[C@@H](OC[C@](C)(N)C(C)(C)C)[C@H](n4ncnc4-c4ccncc4)C5)C3=CC[C@@]2(C)[C@@H]1C(=O)O [SCY-078] ) = 1320 ng·h/mL

====

RUN_DESCRIPTION: Plasma, vaginal secretion and vaginal tissue exposure after oral administration in mice
Assay type: in vivo
CONDITION_DESCRIPTION: female, CD-1, mouse, vaginal secretion, po, 20 mg/kg, oral gavage, QD 20 mg/kg (Day 1), read-out: AUC0-24 Vaginal Secretion
REPORTED_METRIC: AUC(0-t) (ng·h/mL)
Provide only the numeric value, understood in ng·h/mL.

Reported AUC(0-t) ( `CC(C)[C@@H](C)[C@@]1(C)CC[C@]2(C)[C@H]3CC[C@@H]4[C@@]5(COC[C@]4(C)[C@@H](OC[C@](C)(N)C(C)(C)C)[C@H](n4ncnc4-c4ccncc4)C5)C3=CC[C@@]2(C)[C@@H]1C(=O)O` ) = 1870
